system: HL-60; test: area under dose-response curve (viability, 1 nM-10 uM) (fraction (0-1)); higher = more sensitive; conditions: 72 h; co-treatment: DMSO vehicle
Measured Endpoint: area under dose-response curve

Record Nc1nc(O)c2c(CCc3ccc(C(=O)N[C@@H](CCC(=O)O)C(=O)O)cc3)c[nH]c2n1 / HL-60, area under dose-response curve recorded as 0.233

Note to self: area under dose-response curve of Cc1[nH]n(-c2ccccc2)c(=O)c1C1(C(F)(F)F)C(=O)N(c2ccccc2)C2=C1C(=O)CC(C)(C)C2 (centres undefined) with HL-60 was < 0.0301

The compound CC(=O)N1CCN(c2ccc(OC[C@@H]3CO[C@@](Cn4ccnc4)(c4ccc(Cl)cc4Cl)O3)cc2)CC1 (racemic) , when measured on HL-60, yielded area under dose-response curve of < 0.0301

Measured on HL-60, Cn1c2cc(S(C)=O)sc2c2cnn(Cc3cccc(N)c3)c(=O)c21 (centres undefined) has a documented area under dose-response curve of < 0.0301

Given the compound O=C(/C=C/c1cccnc1)NCCCCC1CCN(C(=O)c2ccccc2)CC1 and test system HL-60, the measured area under dose-response curve is 0.78

Simply: CN1CC(=O)N2[C@H](c3ccc4c(c3)OCO4)c3[nH]c4ccccc4c3C[C@@H]2C1=O , HL-60, area under dose-response curve = < 0.0301

Bench note, HL-60: entry Clc1cc(Cl)c(OCC#CI)cc1Cl , its area under dose-response curve = 0.032

# area under dose-response curve measured on HL-60 for item CNC(=C[N+](=O)[O-])NCCSCc1ccc(CN(C)C)o1 = < 0.0301

Query NCc1ccc(-c2cccnc2)s1 on HL-60; area under dose-response curve returned: < 0.0301

Result for O=c1oc2c(cc1O)oc(=O)c1cc(O)c(O)c(O)c12 , tested on HL-60, area under dose-response curve: < 0.0301

Fill in: HL-60 area under dose-response curve for NC(CCC(=O)NC(CSCc1ccc(Br)cc1)C(=O)NCC(=O)OC1CCCC1)C(=O)OC1CCCC1 (centres undefined) = < 0.0301

Note to self: area under dose-response curve of C=C1NC(=O)c2cc(CN(C)c3ccc(C(=O)N[C@@H](CCC(=O)O)C(=O)O)s3)ccc2N1 with HL-60 was 0.412

// compound OCCN(CCO)c1nc(N2CCCCC2)c2nc(N(CCO)CCO)nc(N3CCCCC3)c2n1 , assay HL-60, area under dose-response curve value: < 0.0301

The reported area under dose-response curve value, HL-60, for CC(C)(CS(=O)(=O)[O-])NC(=O)CC[N+](C)(C)CCO reads < 0.0301

* * *

test system: HL-60; experiment: cell viability (% survival relative to DMSO control); higher = less cytotoxic; details: 10 µM; 72 h; co-treatment: pictilisib 100 nM
I'd be grateful if you could share measured cell viability for these entries.
Report as a plain number; the unit % is understood.

Reported cell viability of C[C@H]1O[C@H](O[C@H]2[C@H](O)[C@@H](O)[C@@H](O[C@H]3[C@H](O)[C@@H](O)C(O)O[C@@H]3CO)O[C@@H]2CO)[C@H](O)[C@@H](O)[C@@H]1N[C@H]1C=C(CO)[C@@H](O)[C@H](O)[C@H]1O (mixture of isomers) [Acarbose] : 103

Input Cc1cc(O)c2c(c1)C(=O)c1cc(O)cc(O)c1C2=O [Emodin] . Output cell viability: 97.6

// field: cell viability; key: CC(=O)N1CCN(c2ccc(OC[C@@H]3CO[C@@](Cn4ccnc4)(c4ccc(Cl)cc4Cl)O3)cc2)CC1 (racemic) [Ketoconazole] ; value = 102

The compound listed as CCCCC/C=C\C/C=C\C/C=C\C/C=C\CCCC(=O)C(F)(F)F [Arachidonyl trifluoromethyl ketone] shows cell viability equal to 96.6

The value of cell viability measured for the compound CC1Cc2ccccc2N1NC(=O)c1ccc(Cl)c(S(N)(=O)=O)c1 (stereo unspecified) [Indapamide] turned out to be 98.4

// sample CC(C)(CCCCCCCCCCC(C)(C)CC(=O)O)CC(=O)O [MEDICA 16] , its cell viability was 100

compound NC(CCC(=O)NC(CSCc1ccc(Br)cc1)C(=O)NCC(=O)OC1CCCC1)C(=O)OC1CCCC1 (stereo unspecified) [S-para-Bromobenzylglutathione cyclopentyl diester] , cell viability observed: 55.5

Entry NS(=O)(=O)c1ccc(S(=O)(=O)Nc2cccc3c(Cl)c[nH]c23)cc1 [Indisulam] ; cell viability = 77.3

Entry Cn1cc(C[C@@H](N)C(=O)O)c2ccccc21 [Indoximod] , cell viability reported as 93.9

The reported value for C=C1NC(=O)c2cc(CN(C)c3ccc(C(=O)N[C@@H](CCC(=O)O)C(=O)O)s3)ccc2N1 [Raltitrexed] in terms of cell viability is 26.1

Looking up OCCN(CCO)c1nc(N2CCCCC2)c2nc(N(CCO)CCO)nc(N3CCCCC3)c2n1 [Dipyridamole] , I see its cell viability listed as 97.4

* * *

tested on: SHI-1; assay: cell viability (% survival relative to DMSO control, bortezomib = 0%); higher = less cytotoxic; details: 1 nM; 72 h
Counter-ions that a name gives are not always drawn.
Kindly state cell viability for each of the entries shown.
Write the value in % as a bare number.

# lookup: O=C(Oc1ccc([N+](=O)[O-])cc1)N1CCC(C(O)(c2ccc3c(c2)OCO3)c2ccc3c(c2)OCO3)CC1 on SHI-1, cell viability = 110

Here CC(C)(Cc1ccccc1)NCC(O)c1ccc(O)c(NS(C)(=O)=O)c1 (stereo not given) [Zinterol hydrochloride] was tested on SHI-1, and its cell viability came to 111

Per the reported SHI-1 data, Cc1[nH]n(-c2ccccc2)c(=O)c1C1(C(F)(F)F)C(=O)N(c2ccccc2)C2=C1C(=O)CC(C)(C)C2 (stereo not given) has cell viability of 101

SHI-1 assay, compound Nc1ccn([C@@H]2O[C@H](CO)[C@@H](O)C2(F)F)c(=O)n1 , recorded cell viability = 101

SHI-1 cell viability of CN1CC(=O)N2[C@H](c3ccc4c(c3)OCO4)c3[nH]c4ccccc4c3C[C@@H]2C1=O is 109

// compound Cn1cc(C[C@@H](N)C(=O)O)c2ccccc21 , assay SHI-1, cell viability value: 96

Entry O=C1N[C@@H]2[C@@H](O)[C@@H](O)[C@H](O)[C@@H](CO)N2C1=O ; assay system SHI-1; cell viability recorded at 96.9

Test item OCCN(CCO)c1nc(N2CCCCC2)c2nc(N(CCO)CCO)nc(N3CCCCC3)c2n1 ; SHI-1; reported cell viability was 104

SHI-1 assay, compound OC[C@H]1N[C@@H](c2c[nH]c3c(O)ncnc23)[C@H](O)[C@@H]1O , recorded cell viability = 101

Bench note, SHI-1: CCCCCCCCCCCCC/C=C/[C@@H](O)[C@H](CO)N(C)C , cell viability reads 101

The compound O=C(c1c2ccccc2cc2ccccc12)N1CCC(N2CCC[C@@H](C(=O)N3CCOCC3)C2)CC1 , tested on SHI-1, showed cell viability of 110

Form: item N#Cc1ccc(C2CCCc3cncn32)cc1 (stereo not given) ; test system SHI-1; cell viability: 113

The compound CCCCCCCNC=O [N-Heptyl-Formamide] , when measured on SHI-1, yielded cell viability of 109

So the reported cell viability for CN(C)C(=N)NC(=N)N , on SHI-1, turned out to be 103

# CN(C)CCNC(=O)c1cccn2c(=O)c3cc4ccccc4cc3nc12 with SHI-1: cell viability is 108

// returns cell viability for Fc1ccc(CNc2ncnc3ccc(F)cc23)cc1 with SHI-1; value = 113

GET /values?item= NC(CCC(=O)NC(CSCc1ccc(Br)cc1)C(=O)NCC(=O)OC1CCCC1)C(=O)OC1CCCC1 (stereo not given) &system= SHI-1 returns cell viability: 98.2

Field cell viability (system: SHI-1) for entry Cn1c2cc(S(C)=O)sc2c2cnn(Cc3cccc(N)c3)c(=O)c21 (stereo not given) = 125

Record CC(C)(F)C[C@H](N[C@@H](c1ccc(-c2ccc(S(C)(=O)=O)cc2)cc1)C(F)(F)F)C(=O)NC1(C#N)CC1 ; system SHI-1; cell viability = 109

Fill in: SHI-1 cell viability for OCC(CO)N[C@H]1C[C@](O)(CO)[C@@H](O)[C@H](O)[C@H]1O = 106

Query Oc1ncc(F)c(O)n1 on SHI-1; cell viability returned: 91.6

Bench note, SHI-1: entry O=C(/C=C/c1cccnc1)NCCCCC1CCN(C(=O)c2ccccc2)CC1 , its cell viability = 86.7

Short answer on SHI-1 for COc1cc(/C=C/c2ccc(OC)cc2OC)cc(OC)c1 , cell viability: 99.7

Tested system SHI-1; cell viability recorded for O=C(Oc1cccc(F)c1OC(=O)c1cccc(O)c1)c1cccc(O)c1 was 95.8

Record O[C@H]1[C@H](O)[C@@H](O)CN2CC[C@H](O)[C@H]12 ; system SHI-1; cell viability = 106

Hey, just so you know, these numbers are from the supplement of paper PMC8671470.
